FYI, the data here is from ChEMBL document CHEMBL6114955.

- protocol-details: Metabolic stability in human liver microsomes assessed as intrinsic clearance measured per mg of protein in presence of NADPH measured upto 60 mins in presence of 8 uM quinidine by LC-MS/MS analysis
- Type: ADME, Microsome
- assay-setup: 1 h
Item-by-item account of CLint
property-label: CLint

>>> result("CC(=O)NCSCCCCCCC(=O)Nc1nc(-c2ccc(F)cc2)cs1")
"243 µL/min/mg"
>>> result("CC(C)N(C(=O)SCCCCCCC(=O)Nc1nc(-c2ccc(F)cc2)cs1)C(C)C")
"1840 µL/min/mg"
>>> result("CNC(=O)SCCCCCCC(=O)Nc1nc(-c2ccc(F)cc2)cs1")
"288 µL/min/mg"
>>> result("CN(C)C(=O)SCCCCCCC(=O)Nc1nc(-c2ccc(F)cc2)cs1")
"675 µL/min/mg"
>>> result("CC(C)(C)C(=O)NCSCCCCCCC(=O)Nc1nc(-c2ccc(F)cc2)cs1")
"1470 µL/min/mg"

* * *

- protocol-details: Metabolic stability in human liver microsomes assessed as intrinsic clearance measured per mg of protein in presence of NADPH measured upto 60 mins in presence of 50 uM furafylline by LC-MS/MS analysis
- Format: ADME, Microsome
- assay-setup: 1 h
Collected CLint values appear next to each entry.
property-label: CLint (µL/min/mg)

>>> numeric_result("CC(=O)NCSCCCCCCC(=O)Nc1nc(-c2ccc(F)cc2)cs1")
253
>>> numeric_result("CC(C)N(C(=O)SCCCCCCC(=O)Nc1nc(-c2ccc(F)cc2)cs1)C(C)C")
1380
>>> numeric_result("CNC(=O)SCCCCCCC(=O)Nc1nc(-c2ccc(F)cc2)cs1")
296
>>> numeric_result("CN(C)C(=O)SCCCCCCC(=O)Nc1nc(-c2ccc(F)cc2)cs1")
708
>>> numeric_result("CC(C)(C)C(=O)NCSCCCCCCC(=O)Nc1nc(-c2ccc(F)cc2)cs1")
1490

* * *

The following compounds are listed with their measured half-life values.
- protocol-details: Metabolic stability in human liver microsomes assessed as half life in presence of NADPH measured upto 60 mins in presence of 8 uM quinidine by LC-MS/MS analysis
- Type: ADME, Microsome
- assay-setup: with quinidine
property-label: half-life (min)

>>> numeric_result("CNC(=O)SCCCCCCC(=O)Nc1nc(-c2ccc(F)cc2)cs1")
7.28
>>> numeric_result("CN(C)C(=O)SCCCCCCC(=O)Nc1nc(-c2ccc(F)cc2)cs1")
3.11
>>> numeric_result("CC(C)(C)C(=O)NCSCCCCCCC(=O)Nc1nc(-c2ccc(F)cc2)cs1")
1.43
>>> numeric_result("CC(=O)NCSCCCCCCC(=O)Nc1nc(-c2ccc(F)cc2)cs1")
8.68
>>> numeric_result("CC(C)N(C(=O)SCCCCCCC(=O)Nc1nc(-c2ccc(F)cc2)cs1)C(C)C")
1.15

* * *

- protocol-details: Metabolic stability in human liver microsomes assessed as half life in presence of NADPH measured upto 60 mins by LC-MS/MS analysis
- Assay type: ADME, Microsome
property-label: half-life (min)

>>> numeric_result("O=C(CCCCCCSC(=O)Cc1ccccc1)Nc1nc(-c2ccc(F)cc2)cs1")
2.14
>>> numeric_result("CCCCSSCCCCCCC(=O)Nc1nc(-c2ccc(F)cc2)cs1")
6.08
>>> numeric_result("CC(C)N(C(=O)SCCCCCCC(=O)Nc1nc(-c2ccc(F)cc2)cs1)C(C)C")
1.27
>>> numeric_result("COC(=O)SCCCCCCC(=O)Nc1nc(-c2ccc(F)cc2)cs1")
0.79
>>> numeric_result("CCCCCCSSCCCCCCC(=O)Nc1nc(-c2ccc(F)cc2)cs1")
11.9
>>> numeric_result("CC(C)(C)SSCCCCCCC(=O)Nc1nc(-c2ccc(F)cc2)cs1")
12.5
>>> numeric_result("COP(=O)(OC)SCCCCCCC(=O)Nc1nc(-c2ccc(F)cc2)cs1")
9.85
>>> numeric_result("O=C(CCCCCCSSC1CCCCC1)Nc1nc(-c2ccc(F)cc2)cs1")
18.9
>>> numeric_result("CC(=O)NCSCCCCCCC(=O)Nc1nc(-c2ccc(F)cc2)cs1")
6.81
>>> numeric_result("CC(C)(C)C(=O)SCCCCCCC(=O)Nc1nc(-c2ccc(F)cc2)cs1")
4.11
>>> numeric_result("O=C(CCCCCCSC(=O)N1CCCC1)Nc1nc(-c2ccc(F)cc2)cs1")
11.4
>>> numeric_result("O=C(CCCCCCSC(=O)c1ccc(C(F)(F)F)cc1)Nc1nc(-c2ccc(F)cc2)cs1")
5.77
>>> numeric_result("CCCCCNC(=O)SCCCCCCC(=O)Nc1nc(-c2ccc(F)cc2)cs1")
5.5
>>> numeric_result("CN(C)C(=O)SCCCCCCC(=O)Nc1nc(-c2ccc(F)cc2)cs1")
3.09
>>> numeric_result("COc1ccc(C(=O)SCCCCCCC(=O)Nc2nc(-c3ccc(F)cc3)cs2)cc1")
10.8
>>> numeric_result("CCC(=O)SCCCCCCC(=O)Nc1nc(-c2ccc(F)cc2)cs1")
1.17
>>> numeric_result("O=C(CCCCCCSC(=O)c1ccccc1)Nc1nc(-c2ccc(F)cc2)cs1")
2.34
>>> numeric_result("CCOP(=O)(OCC)SCCCCCCC(=O)Nc1nc(-c2ccc(F)cc2)cs1")
2.14
>>> numeric_result("CC(=O)SCCCCCCC(=O)Nc1nc(-c2ccc(F)cc2)cs1")
0.57
>>> numeric_result("O=C(CCCCCCSP(=O)(c1ccccc1)c1ccccc1)Nc1nc(-c2ccc(F)cc2)cs1")
0.92
>>> numeric_result("CC(C)(C)C(=O)NCSCCCCCCC(=O)Nc1nc(-c2ccc(F)cc2)cs1")
1.75
>>> numeric_result("CNC(=O)SCCCCCCC(=O)Nc1nc(-c2ccc(F)cc2)cs1")
4.81
>>> numeric_result("O=C(CCCCCCSC(=O)c1ccc2c(c1)OCCO2)Nc1nc(-c2ccc(F)cc2)cs1")
11.4

* * *

- protocol-details: Metabolic stability in human liver microsomes assessed as half life in presence of NADPH measured upto 60 mins in presence of 10 uM montelukast by LC-MS/MS analysis
- Assay type: ADME, Microsome
- assay-setup: with montelukast
Each entry below carries its recorded log10 of half-life.
property-label: log10 of half-life (log10 of the value in min)

>>> numeric_result("CC(C)(C)C(=O)NCSCCCCCCC(=O)Nc1nc(-c2ccc(F)cc2)cs1")
0.26
>>> numeric_result("CC(C)N(C(=O)SCCCCCCC(=O)Nc1nc(-c2ccc(F)cc2)cs1)C(C)C")
0.10
>>> numeric_result("CNC(=O)SCCCCCCC(=O)Nc1nc(-c2ccc(F)cc2)cs1")
1.02
>>> numeric_result("CC(=O)NCSCCCCCCC(=O)Nc1nc(-c2ccc(F)cc2)cs1")
1.15
>>> numeric_result("CN(C)C(=O)SCCCCCCC(=O)Nc1nc(-c2ccc(F)cc2)cs1")
0.76

* * *

- protocol-details: Metabolic stability in human liver microsomes assessed as half life in presence of NADPH measured upto 60 mins in presence of 2 uM ketoconazole by LC-MS/MS analysis
- Format: ADME, Microsome
- assay-setup: with ketoconazole
The threshold is 20 min. Values of half-life beneath it are tagged 1 (yes); values meeting or exceeding it are tagged 0 (no).

>>> class_name("CNC(=O)SCCCCCCC(=O)Nc1nc(-c2ccc(F)cc2)cs1")
"1 (yes)"
>>> class_name("CC(C)(C)C(=O)NCSCCCCCCC(=O)Nc1nc(-c2ccc(F)cc2)cs1")
"0 (no)"
>>> class_name("CC(C)N(C(=O)SCCCCCCC(=O)Nc1nc(-c2ccc(F)cc2)cs1)C(C)C")
"0 (no)"
>>> class_name("CN(C)C(=O)SCCCCCCC(=O)Nc1nc(-c2ccc(F)cc2)cs1")
"1 (yes)"
>>> class_name("CC(=O)NCSCCCCCCC(=O)Nc1nc(-c2ccc(F)cc2)cs1")
"0 (no)"

* * *

- protocol-details: Metabolic stability in human liver microsomes assessed as half life in presence of NADPH measured upto 60 mins in presence of 50 uM furafylline by LC-MS/MS analysis
- Type: ADME, Microsome
- assay-setup: with furafylline
property-label: half-life (min)

>>> numeric_result("CNC(=O)SCCCCCCC(=O)Nc1nc(-c2ccc(F)cc2)cs1")
7.1
>>> numeric_result("CN(C)C(=O)SCCCCCCC(=O)Nc1nc(-c2ccc(F)cc2)cs1")
2.98
>>> numeric_result("CC(C)(C)C(=O)NCSCCCCCCC(=O)Nc1nc(-c2ccc(F)cc2)cs1")
1.41
>>> numeric_result("CC(=O)NCSCCCCCCC(=O)Nc1nc(-c2ccc(F)cc2)cs1")
8.31
>>> numeric_result("CC(C)N(C(=O)SCCCCCCC(=O)Nc1nc(-c2ccc(F)cc2)cs1)C(C)C")
1.52
